substrate: PET; test: Proxy for plastic degradation [HPLC-UV] (mmol); conditions: pH 8; 30 °C
measurement-name: Proxy for plastic degradation
Reply: number alone, nothing else.

Entry under review: unnamed (protein) QVYEIGHTTITFNDPSRSRDIETEIYYPADVAGENVAVSTGTFPVCVFGHGFTMSVDAYENFSDVLVPQGYIILLPSTEDGFSPNHDEFGLDLAFLVDEFQLENTNGTSLFYGAIAPETALMGHSMGGGCSFLAAESNSSVTTLVNFAAAETNTSAIAAAANITIPAVVFSGEVDPVAPPADHQIPMYNALASECKTYISINDGGHCYFANYNFYCTMGEEAMMPGGPPLTREEQQQTTLDFLSIWLDYTLKGNANALTVFNDSLASSPRITYQQDCNLTILDQINPNAEFKVYPNPADQFFILESSREIKHVLIYNSMGSICLERNKRHRIDISELPEGMYVIKAITESGSFTKKIMVLH . Reported Proxy for plastic degradation?
0

Reference for the values: the PETadex activity labels (doi:10.1093/ismejo/wraf068)
